# procedure_details: yeast display, Sf9 membrane polyspecificity reagent, FACS + sequencing; frameworks hold sequencing errors
measured_quantity: polyreactivity (PSR sort gate)

See these solved cases before continuing.
[[record]]
primary_sequence = "QVQLVESGGVLVQAGGSLRLSCAASRSIFQGYVMGWYRQAPGKERELVAAISYSGDSTYYADSVKGRFTNSRDNAKNTVSLQINSVKPEDTAVYYCNAYRNRYGYRTSSRRYGYWGQGTQVTVSS"
endpoint_value = "high polyreactivity"

[[record]]
primary_sequence = "QVQLVESGGGLVQAGGSLRLSCAASGFIFNAYPMGWYRPAPGKERELVAAISSSGGRTYYADSVKGRFTISRDNAKNTVYLHMNSLKPEDTAVYYCNADKNSIIKLRGYYYWGQGTQVTVSS"
endpoint_value = "high polyreactivity"

[[record]]
primary_sequence = "QVQLVESGGGLDQAGGSLRLSCAASGSIFGYAMGWYRQAPGKERELLAAITDSGGRTYYADSVKGRFTISRDNAKNTVYLQMNSLKPEDTAVYYCAKTWYPWSRYGYYRRYDSWGQGTQVNVSS"
endpoint_value = "low polyreactivity"

[[record]]
primary_sequence = "QVQLVESGGGLVQAGGSLRLSCAASGRIYRYAIGWYRQAPGKERELVASISYSGGSTYYADSVNGRFTISRDNAKNTVYLQMNSLKPEDTAVYYCAARTRHVHYGDWGQGTQVTVSS"
endpoint_value = "high polyreactivity"

[[record]]
primary_sequence = "QVQLVESGGGLVQAGGSLRLICAASGRIFYNNAMGWYRQARGKERELVAGISRSSGRTYYADSVTGRFTISRDNAKNTGYLQMNSLKPVDTAVYYCAADWHYRSTARRMGYWGQGTQVTVSS"
endpoint_value = "high polyreactivity"

[[record]]
primary_sequence = "QVQLVESGGGLVQAGGSLRLSCAASGRTFSGNTMVWYRQAPGKERELVAAITGRGGSTYYADSVKGRFTISRDNAKNTVYLQMNSKKPEDTAVYYCAALRYTFAGRFDYWGQGTQVTVSS"
endpoint_value = "high polyreactivity"

[[record]]
primary_sequence = "QVQLVESGGGLVQAGGSLRLSCAASGSTIFENVMGWYRQAPGKEREFVAAINTSGGSTYYADSVKGRFTISRDNAKNTVYLQMNILKPEDTAVYYCARDSYWELDYWGQGTQVTVSS"
endpoint_value = "low polyreactivity"

[[record]]
primary_sequence = "QVQLVESRGGIVQAGGSLRLSCAASGRIFNNYAMGCYRQAPGKERELDAAISGGGSTNYADSVKGRFTISRDNETNTVYLQMNSLKPEDTAVYYSATGYLKASRDLYETVPYDYWGQGTQVTVSS"
endpoint_value = "low polyreactivity"

[[record]]
primary_sequence = "QVQLVESGGGLVQAGGSLRLSCAASGRIFYSYAMGWYRQAPGKERELVAAISWSGGRTYYADSVKGRFTISRDNAKNNVYLQMNSLKPEDTAVYYCARRGYYYDYWGQGTQVTVSS"
endpoint_value = "high polyreactivity"

[[record]]
primary_sequence = "QVQLVESGGGLVQAGGSLRLSCAASGSICWIYAMGWYRQAPGKERELVAAINVGGGSTYYADSVKGRFTISRDNAKNTVYLQMNSLKPEDTAVYYCAKGYQSPYKSQGYEYDYWGQGTQVTVSS"
endpoint_value = "low polyreactivity"


Now look at this one.
[Q] Given the sequence `QVQLVESGGGLVQAGGSLRLSCAASGSTFLYNTMGWYRQAPGKERELVATITSRGDRTYYADSVKGRFTISRDIPKNNVYLQMNSLKPEDTAVYYCNAYGGNYPQSYRYYYWGQGTQVTVSS` , write its reported polyreactivity (PSR sort gate).
[A] low polyreactivity

* * *

# procedure_details: yeast display, Sf9 membrane polyspecificity reagent, FACS + sequencing; frameworks hold sequencing errors
measured_quantity: polyreactivity (PSR sort gate)

See these solved cases before continuing.
[[record]]
primary_sequence = "QVQLVESVGGLVQVGGSLRLSCAASGSILTDYGMGWYRQAPGKERELVAAITGSGGSTYYADSVKGRFTISRDNAKNTVYLQMNSLKPEDTAVYYCAKRHVGSRYLFDYWGQGTQVTVSS"
endpoint_value = "low polyreactivity"

[[record]]
primary_sequence = "QVHLVESGGGLVQAGGSLRLSCAASGSIFSGNTMGWYRQAPGKERELVAAISGGGSTNYADSVKGRFTISRDNAKNTVYLQMNSLKPEDTAVYYCAKDWSLGASRMDYWGQGTQVTVSS"
endpoint_value = "low polyreactivity"

[[record]]
primary_sequence = "QVQLVESGGGLVQAGGSLRLSCAASGRIIYRYAMGWYRQAPGKERELVATITWSTTSTYYADSVKGRFTISRDNAKNTVYLEMNSLKPEDTAVYYCASSIIPGFRRDPFGYWGQGTQVTVSS"
endpoint_value = "low polyreactivity"

[[record]]
primary_sequence = "QVQLVESGGGLVQAGGSLRLSCSDSGSTFWLNAMGWYRQPPGKEREYVAAITWSSGSTYYADSVKGSFTISRDNAKNTVYLQMNSLKPEDTAVYYCNADYYFTSYEYEYWGQGTQVTVSS"
endpoint_value = "low polyreactivity"

[[record]]
primary_sequence = "QVQLVESGGGLVQAGGSLRLSCAASGRIFRVYAMGWYRQAPGKERELVAAISSRGGRTYYADSVKGRFTISRDNAKNTVYLQMNSLKPEDTAVYYCAADGRSSSRATSRYDYWGQGTQVTVSS"
endpoint_value = "high polyreactivity"


[Q] Given the sequence `QVQLVESGGGLVQAGGSLRLSCAASGRIFNFYAMGWYRQAPGKERELVAAITRGGSTYYADSVKGRFTISRDNAKNTVYLQMNSLKPEDTAVYYCNALNRYYDGDYYYWGQGTQVTVSS` , write its reported polyreactivity (PSR sort gate).
[A] high polyreactivity

[Q] Given the sequence `QVQLVESGGGLVQAGGSLRLSCAASGRTFTIYAMGWYRQAPGKERELVAAISSSSGSTYYADSVKGRFTISRDNAKNTVYLQMNSLKPEDTAVYYCAARTTYRSSKRYGYWGQGTQVTVSS` , write its reported polyreactivity (PSR sort gate).
[A] high polyreactivity

[Q] Given the sequence `QVQLVESGGCLVQAGGSLRLSCAASGRTFYFYTMGWYRQAPGKERQLVATIRWSAGSTYYADSVKGRFTISRDNAKNTVYLQMNSLKPEDTAVYYCNADPYVYSSWQYGYWGQGTQVTVSS` , write its reported polyreactivity (PSR sort gate).
[A] high polyreactivity

* * *

# procedure_details: yeast display, Sf9 membrane polyspecificity reagent, FACS + sequencing; frameworks hold sequencing errors
measured_quantity: polyreactivity (PSR sort gate)

[[record]]
primary_sequence = "QVQLVESGGGLVQAGGSLRLSCAASGRTFTGYVMGWYRQAPGKDRELVAGSSRRGGRTYYADSVKGRYTISRDNAKNTVYLQMNSLKPEDTEVYYCAAAVTSSDPYDYWGQGTQVTVSS"
measured_quantity = "polyreactivity (PSR sort gate)"
endpoint_value = "high polyreactivity"

[[record]]
primary_sequence = "QVQLVESGGGLVQAGGSLRLSCAASGRTFKYYAMGWYRQAPGKERELVASISRSGGITYYADSVKGRFTISRDNAKNTVYLQMNSLKPEDTAVYYCAARYSVRPISIYPFDFGYWGQGTQVTVSS"
measured_quantity = "polyreactivity (PSR sort gate)"
endpoint_value = "low polyreactivity"

[[record]]
primary_sequence = "QVHFVESGGGLVQAGGSLRLSSAASGRTFQYNAMGWYRQAPGKERELVARITWSGDSTYYADSVKGRFTISRDNAKNSVYLQMNSLKPEDTAVYYCNAGRRWRRTAYDYWGQGTQVTVSS"
measured_quantity = "polyreactivity (PSR sort gate)"
endpoint_value = "high polyreactivity"

[[record]]
primary_sequence = "QVQLVESGGGLVQAGGSLRLSCAASGITFYYYAMGWYRQEPGKERELVAAINWSGTSTYYADSVKGRFTISRDNAKNTVYLQMNSLKPEDTAVYYCNAERGRSFWWAYDYWGQGTQVTVSS"
measured_quantity = "polyreactivity (PSR sort gate)"
endpoint_value = "low polyreactivity"

[[record]]
primary_sequence = "QVQLVESGGGLVQAGGSLRLSCAASGSIFYRYTMGWSRQAPGKERELVAAITYSGGSTYYADSVKGRFTISRDNAKNTVYLQMNSLIPEDTAVYYCNKDYYSGQSGYNYWGQGTQVTVSS"
measured_quantity = "polyreactivity (PSR sort gate)"
endpoint_value = "low polyreactivity"

[[record]]
primary_sequence = "QVQLVESGGGLVQAGGSLRLSCAASGITLYFYARGWYRQAPGKERELVAAISRGGRTYYADSVKGRFTISRDNAKNTVYLQMNSLKPEDTAVYDCAARYTSEYSAFDYWGQGTQVTVSS"
measured_quantity = "polyreactivity (PSR sort gate)"
endpoint_value = "low polyreactivity"

[[record]]
primary_sequence = "QVQLVESGGGLVQAGGSLRLSCAASGRTFFVYTMGWYRQAPGKERELVAAITSDTSTTYADSVKGRFTISRDNAKNTVYLQMNSLKPEDTAVYYCAAEGYVGYYDYDYWGQGTQVTVSS"
measured_quantity = "polyreactivity (PSR sort gate)"
endpoint_value = "low polyreactivity"

[[record]]
primary_sequence = "QVQLVESGGGLVQAVGSLRLSCAASGRTFYSYAMGWYRQAPGKERELVAAISRTGGSTYYADSVKGRFTISLDNAKNTVYLQMNSLKPEDTAVYYCAAVYRRNEFGYWGQGTQVTVSS"
measured_quantity = "polyreactivity (PSR sort gate)"
endpoint_value = "high polyreactivity"

[[record]]
primary_sequence = "QVQLVESGGGLVQAGGSLRLSCAASGRTSHRNVMGWYRQAPGTEREVVARISRSGGRTYYADSVKGRFTISRDNAKNTVYSQMNSLKPEDTAVYYCNADYSSRGANYDYWGQGTQVTVSS"
measured_quantity = "polyreactivity (PSR sort gate)"
endpoint_value = "high polyreactivity"

[[record]]
primary_sequence = "QVQLVESGGGLVQAGGSLRLSCAASGSTFVHYAMGWYRQAPGKERELVAAITISGGRTYYADSVKGRFTISRDNAKNTVYLQMNSLKPEDTAVYYCNADHYHRTWGYDYWGQGTQVTVSS"
measured_quantity = "polyreactivity (PSR sort gate)"
endpoint_value = "low polyreactivity"


Now look at this one.
[Q] Given the sequence `QVQLEESGGGLDQAGGSLRLTCAASGSTFLFYAMGWYRQAPGKESELVAAIRWSGGSTYADSVKGRFTISRDNAKYTVYLPMNSLKPEDTAVYYCATTYRPTFRRHYKYWGQGTQVTVSS` , write its reported polyreactivity (PSR sort gate).
[A] low polyreactivity

Reference source: the nanobody polyreactivity screen of Harvey et al. (2022)
